# credit: PubChem BioAssay (NCATS)

Provide the reported cell viability, % of control (lower = more cytotoxic) of each item.
# method-notes: High-throughput drug toxicity screening in the BPDCN cell line Gen2.2 (AID 1224824);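 note: cells exposed to compounds for 48 h before reading; 100% = DMSO and 0% = bortezomib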
# run-conditions: Gen2.2 BPDCN cells; at 45.8 µM (top of the series) unless noted
# output: bare number, implied unit %

Note down cell viability, % of control (lower = more cytotoxic) recorded for C[N+]1(C)[C@@H]2C[C@@H](OC(=O)C(O)(c3cccs3)c3cccs3)C[C@H]1[C@@H]1O[C@@H]12 87.6

Note down cell viability, % of control (lower = more cytotoxic) recorded for N[C@H]1CN(c2c(F)cc3c(=O)c(C(=O)O)cn(C4C[C@@H]4F)c3c2Cl)CC12CC2 (stereo partly drawn) 92.2

Note down cell viability, % of control (lower = more cytotoxic) recorded for Oc1ccc([C@@H]2Oc3ccc(O)cc3[C@@H]3CCC[C@@H]32)cc1 90.8

Note down cell viability, % of control (lower = more cytotoxic) recorded for COC[C@H](NC(=O)c1cnc(C)s1)C(=O)N[C@@H](COC)C(=O)N[C@@H](Cc1ccccc1)C(=O)[C@@]1(C)CO1 0.973

Note down cell viability, % of control (lower = more cytotoxic) recorded for Oc1cc(-c2nc(-c3ccccc3)[nH]c2-c2ccncc2)ccc1Cl 3.91

Note down cell viability, % of control (lower = more cytotoxic) recorded for COc1ccc(Nc2nccc(NCCO)n2)cc1 195

Note down cell viability, % of control (lower = more cytotoxic) recorded for C[C@H]1C[C@H]2[C@@H]3CCC4=CC(=O)C=C[C@]4(C)[C@@H]3C(=O)C[C@]2(C)[C@@]1(O)C(=O)CO 87.7

Note down cell viability, % of control (lower = more cytotoxic) recorded for Nc1nc(=O)n([C@H]2CSC(CO)O2)cc1F (stereo partly drawn) 249

Note down cell viability, % of control (lower = more cytotoxic) recorded for O=C1NC(O)CCN1[C@@H]1O[C@H](CO)[C@H](O)[C@H]1O (stereo partly drawn) 105

Note down cell viability, % of control (lower = more cytotoxic) recorded for CCC[C@H]1C[C@H](C(=O)N[C@@H]([C@@H]2O[C@@H](SC)[C@@H](O)[C@@H](O)[C@@H]2O)[C@H](C)Cl)N(C)C1 155

Note down cell viability, % of control (lower = more cytotoxic) recorded for C[C@H](NC(=O)C(C#N)=Cc1cccc(Br)n1)c1ccccc1 5.54

Note down cell viability, % of control (lower = more cytotoxic) recorded for O=C(C=CC#Cc1cccc(NS(=O)(=O)c2ccccc2)c1)NO 4.86

Note down cell viability, % of control (lower = more cytotoxic) recorded for O=C(CCCCCCC(=O)Nc1cccnc1)NO 20.5

---

# method-notes: Quantitative High-Throughput drug screen in 47 multiple myeloma cell lines against the NCATS MIPE library collection: KMS34_JCRB cell viability assay (AID 1918985); note: nearly all actives have a fitted effect of over 40% in size
# run-conditions: KMS34 myeloma viability, CellTiter-Glo ATP luminescence, 48 h; series mostly up to 45.8 µM
Records with an inconclusive call do not appear. The source made the active and inactive calls. The call rests on the fitted dose curve; in most records, active means well fitted cell-killing curve with a large enough effect; inconclusive means small, poorly fitted or top-dose-only effect, or effect the other way; inactive means no such curve, though single readings can be large or run the other way.
Pick one and only one: Yes (active), No (inactive)

GET /call?item= CC(C)OC(=O)[C@H](C)N[P@](=O)(OC[C@H]1O[C@@H](n2ccc(=O)[nH]c2=O)[C@](C)(F)[C@H]1O)Oc1ccccc1 returns the recorded outcome of this test. No

GET /call?item= C[C@H](CCC(=O)O)[C@H]1CCC2C3C[C@H](O)[C@@H]4C[C@H](O)CC[C@]4(C)C3CC[C@@]21C (stereo partly specified) returns the recorded outcome of this test. No

GET /call?item= Oc1ccc(-c2ccc(-c3cc(Nc4cccc(CNC5CC5)c4)n[nH]3)cc2)c(O)c1 returns the recorded outcome of this test. Yes

GET /call?item= C[C@@H](Cc1cc2c(c(C(N)=O)c1)N(CCCO)CC2)NCCOc1ccccc1OCC(F)(F)F returns the recorded outcome of this test. No

GET /call?item= Cn1cnc(=N)c2[nH]cnc21 returns the recorded outcome of this test. Yes

GET /call?item= O=C(NC1CC1)c1cccc(-c2ccc3c(NC(=O)C4CC4)n[nH]c3c2)c1 returns the recorded outcome of this test. Yes
